# System: Streptococcus pyogenes EES61
Assign MIC to each entry below.
One number for each entry, in µg/mL.

input: Please report MIC with Streptococcus pyogenes EES61 for item CC[C@H]1OC(=O)[C@H](C)C(=O)[C@H](C)[C@@H](O[C@@H]2O[C@H](C)C[C@H](N(C)C)[C@H]2O)[C@](C)(OC/C=C/c2cnc(-c3cncnc3)s2)C[C@@H](C)C(=O)[C@H](C)[C@H]2NC(=O)O[C@@]21C [Example 59] .
output: 0.01

// each compound listed below needs its MIC
1. CC[C@H]1OC(=O)[C@H](C)C(=O)[C@H](C)[C@@H](O[C@@H]2O[C@H](C)C[C@H](N(C)C)[C@H]2O)[C@](C)(OCC#Cc2ccc(-c3cnc4ccccc4n3)s2)C[C@@H](C)C(=O)[C@H](C)[C@H]2NC(=O)O[C@@]21C [Example 33]
2. CC[C@H]1OC(=O)[C@H](C)C(=O)[C@H](C)[C@@H](O[C@@H]2O[C@H](C)C[C@H](N(C)C)[C@H]2O)[C@](C)(OCC#Cc2ccc(-c3ccc(C=O)o3)cc2)C[C@@H](C)C(=O)[C@H](C)[C@H]2NC(=O)O[C@@]21C [Example 24]

output:
[0.02, 0.1]

====

# System: Staphylococcus aureus A-5278
measured_property: MIC (µg/mL)
Numbers only, in µg/mL.

input: Please report MIC with Staphylococcus aureus A-5278 for item CC[C@H]1OC(=O)[C@H](C)C(=O)[C@H](C)[C@@H](O[C@@H]2O[C@H](C)C[C@H](N(C)C)[C@H]2O)[C@](C)(OCC#Cc2ccc(-c3ccc(Cl)s3)s2)C[C@@H](C)C(=O)[C@H](C)[C@H]2NC(=O)O[C@@]21C .
output: 12.5

====

Below are MIC values recorded for Escherichia coli DC-2.

input: Please report MIC with Escherichia coli DC-2 for item CC[C@H]1OC(=O)[C@H](C)C(=O)[C@H](C)[C@@H](O[C@@H]2O[C@H](C)C[C@H](N(C)C)[C@H]2O)[C@](C)(OCC#Cc2ccc(-c3cccc([N+](=O)[O-])c3)s2)C[C@@H](C)C(=O)[C@H](C)[C@H]2NC(=O)O[C@@]21C .
output: > 100 µg/mL

As a next step, examine the molecule that follows.
input: Please report MIC with Escherichia coli DC-2 for item CC[C@H]1OC(=O)[C@H](C)C(=O)[C@H](C)[C@@H](O[C@@H]2O[C@H](C)C[C@H](N(C)C)[C@H]2O)[C@](C)(OCC#Cc2ccc(-c3cccc(C)c3)s2)C[C@@H](C)C(=O)[C@H](C)[C@H]2NC(=O)O[C@@]21C .
output: > 100 µg/mL

====

# Tested on: Streptococcus Pneumonia 5649
# protocol_text: in vitro antibacterial activity (MIC), agar dilution
# Assay type: cell-based
# condition_summary: organism code ZZA; BHI agar, 35-37° C., 20 to 24 hours; unit assumed
measured_property: MIC
Reply with a number, then the unit it belongs to.

Past entries and their recorded results:
input: Please report MIC with Streptococcus Pneumonia 5649 for item CC[C@H]1OC(=O)[C@H](C)C(=O)[C@H](C)[C@@H](O[C@@H]2O[C@H](C)C[C@H](N(C)C)[C@H]2O)[C@](C)(OCC#Cc2ccc(-c3cncc(C(=O)N(C)C)c3)s2)C[C@@H](C)C(=O)[C@H](C)[C@H]2NC(=O)O[C@@]21C .
output: 1 µg/mL

input: Please report MIC with Streptococcus Pneumonia 5649 for item CC[C@H]1OC(=O)[C@H](C)C(=O)[C@H](C)[C@@H](O[C@@H]2O[C@H](C)C[C@H](N(C)C)[C@H]2O)[C@](C)(OC/C=C/c2ccc(-c3ccncn3)s2)C[C@@H](C)C(=O)[C@H](C)[C@H]2NC(=O)O[C@@]21C .
output: 0.25 µg/mL

// each molecule listed below needs its MIC
1. CC[C@H]1OC(=O)[C@H](C)C(=O)[C@H](C)[C@@H](O[C@@H]2O[C@H](C)C[C@H](N(C)C)[C@H]2O)[C@](C)(OC/C=C/c2ccc(-c3ncccn3)s2)C[C@@H](C)C(=O)[C@H](C)[C@H]2NC(=O)O[C@@]21C
2. CC[C@H]1OC(=O)[C@H](C)C(=O)[C@H](C)[C@@H](O[C@@H]2O[C@H](C)C[C@H](N(C)C)[C@H]2O)[C@](C)(OC/C=C/c2cncc(Br)c2)C[C@@H](C)C(=O)[C@H](C)[C@H]2NC(=O)O[C@@]21C

output:
1: 0.25 µg/mL; 2: 0.25 µg/mL

====

# Tested on: Streptococcus pyogenes EES61
Assign MIC to each entry below.
Give bare numbers, in µg/mL.

// each molecule listed below needs its MIC
1. CC[C@H]1OC(=O)[C@H](C)C(=O)[C@H](C)[C@@H](O[C@@H]2O[C@H](C)C[C@H](N(C)C)[C@H]2O)[C@](C)(OCC#Cc2ccc(-c3cncnc3)s2)C[C@@H](C)C(=O)[C@H](C)[C@H]2NC(=O)O[C@@]21C [Example 4]
2. CC[C@H]1OC(=O)[C@H](C)C(=O)[C@H](C)[C@@H](O[C@@H]2O[C@H](C)C[C@H](N(C)C)[C@H]2O)[C@](C)(OC/C=C/c2cnc(-c3cncs3)s2)C[C@@H](C)C(=O)[C@H](C)[C@H]2NC(=O)O[C@@]21C [Example 60]
3. CCOC(=O)c1cncc(-c2ccc(C#CCO[C@]3(C)C[C@@H](C)C(=O)[C@H](C)[C@H]4NC(=O)O[C@]4(C)[C@@H](CC)OC(=O)[C@H](C)C(=O)[C@H](C)[C@H]3O[C@@H]3O[C@H](C)C[C@H](N(C)C)[C@H]3O)s2)c1 [Example 10]
4. CC[C@H]1OC(=O)[C@H](C)C(=O)[C@H](C)[C@@H](O[C@@H]2O[C@H](C)C[C@H](N(C)C)[C@H]2O)[C@](C)(OCC#Cc2ccc(-c3cccc([N+](=O)[O-])c3)s2)C[C@@H](C)C(=O)[C@H](C)[C@H]2NC(=O)O[C@@]21C [Example 21]

output:
0.01
0.01
0.01
0.02

====

Below are MIC values recorded for Nocardia Asteroides ATCC9970.
One number for each entry, in µg/mL.

input: Supply reported MIC belonging to this compound: CC[C@H]1OC(=O)[C@H](C)C(=O)[C@H](C)[C@@H](O[C@@H]2O[C@H](C)C[C@H](N(C)C)[C@H]2O)[C@](C)(OC/C=C/c2cncc(-c3nccs3)c2)C[C@@H](C)C(=O)[C@H](C)[C@H]2NC(=O)O[C@@]21C
output: 0.05

As a next step, examine the compound that follows.
input: Supply reported MIC belonging to this compound: CC[C@H]1OC(=O)[C@H](C)C(=O)[C@H](C)[C@@H](O[C@@H]2O[C@H](C)C[C@H](N(C)C)[C@H]2O)[C@](C)(OCC#Cc2ccc(-c3cnc4ccccc4n3)s2)C[C@@H](C)C(=O)[C@H](C)[C@H]2NC(=O)O[C@@]21C
output: 0.1

====

Below are MIC values recorded for Streptococcus pyogenes PIU 2548.
Give bare numbers, in µg/mL.

Past entries and their recorded results:
input: Supply reported MIC belonging to this molecule: CC[C@H]1OC(=O)[C@H](C)C(=O)[C@H](C)[C@@H](O[C@@H]2O[C@H](C)C[C@H](N(C)C)[C@H]2O)[C@](C)(OC/C=C/c2ccc(-c3ccc(Cl)c(Cl)c3)s2)C[C@@H](C)C(=O)[C@H](C)[C@H]2NC(=O)O[C@@]21C
output: 0.39

input: Supply reported MIC belonging to this molecule: CC[C@H]1OC(=O)[C@H](C)C(=O)[C@H](C)[C@@H](O[C@@H]2O[C@H](C)C[C@H](N(C)C)[C@H]2O)[C@](C)(OC/C=C/c2ccc(-c3cnc(N)s3)s2)C[C@@H](C)C(=O)[C@H](C)[C@H]2NC(=O)O[C@@]21C
output: 0.1

input: Supply reported MIC belonging to this molecule: CC[C@H]1OC(=O)[C@H](C)C(=O)[C@H](C)[C@@H](O[C@@H]2O[C@H](C)C[C@H](N(C)C)[C@H]2O)[C@](C)(OCC#Cc2ccc(-c3cncc(C(=O)NN(C)C)c3)s2)C[C@@H](C)C(=O)[C@H](C)[C@H]2NC(=O)O[C@@]21C
output: 0.78

input: Supply reported MIC belonging to this molecule: CC[C@H]1OC(=O)[C@H](C)C(=O)[C@H](C)[C@@H](O[C@@H]2O[C@H](C)C[C@H](N(C)C)[C@H]2O)[C@](C)(OC/C=C/c2ccc(-c3ccsc3)s2)C[C@@H](C)C(=O)[C@H](C)[C@H]2NC(=O)O[C@@]21C
output: 0.1

input: Supply reported MIC belonging to this molecule: CC[C@H]1OC(=O)[C@H](C)C(=O)[C@H](C)[C@@H](O[C@@H]2O[C@H](C)C[C@H](N(C)C)[C@H]2O)[C@](C)(OCC#Cc2ccc(-c3cccc([N+](=O)[O-])c3)s2)C[C@@H](C)C(=O)[C@H](C)[C@H]2NC(=O)O[C@@]21C
output: 0.2

// each molecule listed below needs its MIC
1. CC[C@H]1OC(=O)[C@H](C)C(=O)[C@H](C)[C@@H](O[C@@H]2O[C@H](C)C[C@H](N(C)C)[C@H]2O)[C@](C)(OCC#Cc2ccc(-c3cncc(C(N)=O)c3)s2)C[C@@H](C)C(=O)[C@H](C)[C@H]2NC(=O)O[C@@]21C
2. CC[C@H]1OC(=O)[C@H](C)C(=O)[C@H](C)[C@@H](O[C@@H]2O[C@H](C)C[C@H](N(C)C)[C@H]2O)[C@](C)(OC/C=C/c2ccc(-c3nccs3)s2)C[C@@H](C)C(=O)[C@H](C)[C@H]2NC(=O)O[C@@]21C
3. CC[C@H]1OC(=O)[C@H](C)C(=O)[C@H](C)[C@@H](O[C@@H]2O[C@H](C)C[C@H](N(C)C)[C@H]2O)[C@](C)(OC/C=C/c2ccc(-c3cccc(F)c3)s2)C[C@@H](C)C(=O)[C@H](C)[C@H]2NC(=O)O[C@@]21C

output:
[0.2, 0.2, 0.39]
